// provenance: ChEMBL document CHEMBL4811234

ASSAY_NOTES: Cytotoxicity against human KB/VCR cells assessed as inhibition of cell proliferation at 20 uM measured after 72 hrs by CCK8 assay relative to control
Format: cell-based
MEASUREMENT_KIND: inhibition at 72 h, 20 µM (%)

- SMILES_RECORD: "CC(=O)O[C@H]1[C@@H]2[C@@H](OC(=O)c3cccnc3)[C@]3(OC2(C)C)[C@H](C)C[C@H](OC(C)=O)[C@@H](OC(C)=O)[C@@]3(C)[C@H]1OC(=O)c1ccccc1"
  MEASUREMENT_KIND: "inhibition at 72 h, 20 µM"
  OUTPUT_UNIT: "%"
  ENDPOINT_VALUE: -6.7
- SMILES_RECORD: "CC(=O)O[C@H]1[C@@H]2[C@@H](OC(=O)/C=C/c3ccccc3)[C@]3(OC2(C)C)[C@H](C)C[C@@H](OC(C)=O)[C@H](OC(C)=O)[C@@]3(C)[C@H]1OC(=O)c1ccccc1"
  MEASUREMENT_KIND: "inhibition at 72 h, 20 µM"
  OUTPUT_UNIT: "%"
  ENDPOINT_VALUE: -3
- SMILES_RECORD: "CCCCCC(=O)O[C@@H]1[C@@H]2[C@@H](OC(C)=O)[C@]3(OC2(C)C)[C@H](C)C[C@@H](OC(C)=O)[C@H](OC(C)=O)[C@@]3(C)[C@H]1OC(=O)c1ccccc1"
  MEASUREMENT_KIND: "inhibition at 72 h, 20 µM"
  OUTPUT_UNIT: "%"
  ENDPOINT_VALUE: -1.9
- SMILES_RECORD: "CC(=O)O[C@H]1[C@@H]2[C@@H](OC(C)=O)[C@]3(OC2(C)C)[C@H](C)C[C@@H](OC(C)=O)[C@H](OC(C)=O)[C@@]3(C)[C@H]1OC(=O)c1ccccc1"
  MEASUREMENT_KIND: "inhibition at 72 h, 20 µM"
  OUTPUT_UNIT: "%"
  ENDPOINT_VALUE: -2
- SMILES_RECORD: "CC(=O)O[C@H]1CC[C@@H](C)[C@]23OC(C)(C)[C@H](C[C@H](OC(=O)c4ccccc4)[C@]12C)[C@H]3OC(C)=O"
  MEASUREMENT_KIND: "inhibition at 72 h, 20 µM"
  OUTPUT_UNIT: "%"
  ENDPOINT_VALUE: 0.7
- SMILES_RECORD: "CC(=O)O[C@@H]1[C@@H]2[C@@H](OC(C)=O)[C@]3(OC2(C)C)[C@H](C)C[C@@H](OC(C)=O)[C@H](OC(C)=O)[C@@]3(C)[C@@H]1OC(=O)c1ccccc1"
  MEASUREMENT_KIND: "inhibition at 72 h, 20 µM"
  OUTPUT_UNIT: "%"
  ENDPOINT_VALUE: -1.5
- SMILES_RECORD: "CC(=O)OC[C@]12[C@H](OC(C)=O)C(=O)[C@@H]3[C@@H](O)[C@]1(OC3(C)C)[C@H](C)[C@@H](O)[C@H](OC(C)=O)[C@@H]2OC(C)=O"
  MEASUREMENT_KIND: "inhibition at 72 h, 20 µM"
  OUTPUT_UNIT: "%"
  ENDPOINT_VALUE: 1.5
- SMILES_RECORD: "CC(=O)O[C@@H]1[C@@H]2[C@@H](OC(C)=O)[C@]3(OC2(C)C)[C@H](C)CC[C@H](OC(C)=O)[C@@]3(C)[C@@H]1OC(=O)c1ccccc1"
  MEASUREMENT_KIND: "inhibition at 72 h, 20 µM"
  OUTPUT_UNIT: "%"
  ENDPOINT_VALUE: 2.4
- SMILES_RECORD: "CC(=O)O[C@H]1[C@@H]2[C@@H](OC(=O)/C=C/c3ccccc3)[C@]3(OC2(C)C)[C@H](C)C[C@H](O)[C@H](OC(C)=O)[C@@]3(C)[C@H]1OC(=O)c1ccccc1"
  MEASUREMENT_KIND: "inhibition at 72 h, 20 µM"
  OUTPUT_UNIT: "%"
  ENDPOINT_VALUE: 76.9
- SMILES_RECORD: "CC(=O)OC[C@]12[C@H](OC(C)=O)C(=O)[C@@H]3[C@@H](OC(C)=O)[C@]1(OC3(C)C)[C@H](C)[C@@H](O)[C@H](OC(C)=O)[C@@H]2OC(C)=O"
  MEASUREMENT_KIND: "inhibition at 72 h, 20 µM"
  OUTPUT_UNIT: "%"
  ENDPOINT_VALUE: 9.2
- SMILES_RECORD: "CC(=O)OC[C@]12[C@H](OC(C)=O)C(=O)[C@@H]3[C@@H](O)[C@]1(OC3(C)C)[C@H](C)[C@@H](OC(C)=O)[C@H](OC(C)=O)[C@@H]2OC(C)=O"
  MEASUREMENT_KIND: "inhibition at 72 h, 20 µM"
  OUTPUT_UNIT: "%"
  ENDPOINT_VALUE: 2.6
